- Test system: MDA-MB-231/ATCC
- assayProtocol: NCI60 five-dose screen
- Assay type: cell-based
- measurementParameters: Homo sapiens, breast cancer
propertyMeasured: GI50

Sample answers from the record:
[
  {
    "entrySmiles": "O=C(N/N=C/c1ccc(C(=O)N2CCOCC2)[nH]1)c1[nH]c2ccc(Br)cc2c1-c1ccccc1",
    "GI50": "4810 nM"
  },
  {
    "entrySmiles": "CCc1c[nH]c(/C=N/NC(=O)c2[nH]c3ccc(Br)cc3c2-c2ccccc2)c1",
    "GI50": "311 nM"
  },
  {
    "entrySmiles": "O=C(N/N=C/c1cc[nH]c1)c1[nH]c2ccc(Br)cc2c1-c1ccccc1",
    "GI50": "1620 nM"
  },
  {
    "entrySmiles": "CCOC(=O)c1ccc(/C=N/NC(=O)c2[nH]c3ccc(Br)cc3c2-c2ccccc2)[nH]1",
    "GI50": "2630 nM"
  },
  {
    "entrySmiles": "O=C(N/N=C/c1cc(Cl)c[nH]1)c1[nH]c2ccc(Br)cc2c1-c1ccccc1",
    "GI50": "296 nM"
  },
  {
    "entrySmiles": "O=C(N/N=C/c1cc(Br)c[nH]1)c1[nH]c2ccc(Br)cc2c1-c1ccccc1",
    "GI50": "215 nM"
  },
  {
    "entrySmiles": "CCOC(=O)c1cc(/C=N/NC(=O)c2[nH]c3ccc(Br)cc3c2-c2ccccc2)c[nH]1",
    "GI50": "3270 nM"
  },
  {
    "entrySmiles": "O=C(N/N=C/c1[nH]ccc1Cl)c1[nH]c2ccc(Br)cc2c1-c1ccccc1",
    "GI50": "2070 nM"
  }
]

Entry O=C(N/N=C/c1cc([N+](=O)[O-])c[nH]1)c1[nH]c2ccc(Br)cc2c1-c1ccccc1 : reported GI50 = ?
17400 nM

One more compound: CCOC(=O)c1c[nH]c(/C=N/NC(=O)c2[nH]c3ccc(Br)cc3c2-c2ccccc2)c1
2850 nM

What do we get for Cn1cccc1/C=N/NC(=O)c1[nH]c2ccc(Br)cc2c1-c1ccccc1 ?
237 nM

Also, CCc1ccc(/C=N/NC(=O)c2[nH]c3ccc(Br)cc3c2-c2ccccc2)[nH]1 please.
630 nM

Repeat for the following compound: O=C(N/N=C/c1ccc([N+](=O)[O-])[nH]1)c1[nH]c2ccc(Br)cc2c1-c1ccccc1
2140 nM

O=C(N/N=C/c1ccc[nH]1)c1[nH]c2ccc(Br)cc2c1-c1ccccc1 ?
396 nM

* * *

- Tested on: MDA-MB-468
- assayProtocol: NCI60 five-dose screen
- Format: cell-based
- measurementParameters: Homo sapiens; MDA-MB-468, breast cancer; read-out: LC50 (the source's name)
propertyMeasured: CC50 (µM)
Use µM as the unit, but write only the number.

Example molecules with recorded CC50:
[
  {
    "entrySmiles": "CCOC(=O)c1ccc(/C=N/NC(=O)c2[nH]c3ccc(Br)cc3c2-c2ccccc2)[nH]1",
    "propertyMeasured": "CC50",
    "testResult": 36.6
  },
  {
    "entrySmiles": "Cc1cc(C)c(/C=N/NC(=O)c2[nH]c3ccc(Br)cc3c2-c2ccccc2)[nH]1",
    "propertyMeasured": "CC50",
    "testResult": 26.4
  },
  {
    "entrySmiles": "O=C(N/N=C/c1cc(Br)c(Br)[nH]1)c1[nH]c2ccc(Br)cc2c1-c1ccccc1",
    "propertyMeasured": "CC50",
    "testResult": 22.8
  },
  {
    "entrySmiles": "CCc1ccc(/C=N/NC(=O)c2[nH]c3ccc(Br)cc3c2-c2ccccc2)[nH]1",
    "propertyMeasured": "CC50",
    "testResult": 25.9
  },
  {
    "entrySmiles": "CCc1c[nH]c(/C=N/NC(=O)c2[nH]c3ccc(Br)cc3c2-c2ccccc2)c1",
    "propertyMeasured": "CC50",
    "testResult": 9.22
  }
]

Can you look up the measured CC50 of O=C(N/N=C/c1ccc(C(=O)N2CCOCC2)[nH]1)c1[nH]c2ccc(Br)cc2c1-c1ccccc1 for me?
75.5

What do you get for CCc1cc[nH]c1/C=N/NC(=O)c1[nH]c2ccc(Br)cc2c1-c1ccccc1 ?
32.1

Try O=C(N/N=C/c1cc(Br)c[nH]1)c1[nH]c2ccc(Br)cc2c1-c1ccccc1 next.
13

And for O=C(N/N=C/c1[nH]ccc1Cl)c1[nH]c2ccc(Br)cc2c1-c1ccccc1 ?
24.7

One more molecule: O=C(N/N=C/c1ccc[nH]1)c1[nH]c2ccc(Br)cc2c1-c1ccccc1
42.1
